Target: SPAST Spastin (Homo sapiens)
Construct: endogenous in cells; host or cells: MDA-MB-231 lysate
Sequence (Q9UBP0 whole entry): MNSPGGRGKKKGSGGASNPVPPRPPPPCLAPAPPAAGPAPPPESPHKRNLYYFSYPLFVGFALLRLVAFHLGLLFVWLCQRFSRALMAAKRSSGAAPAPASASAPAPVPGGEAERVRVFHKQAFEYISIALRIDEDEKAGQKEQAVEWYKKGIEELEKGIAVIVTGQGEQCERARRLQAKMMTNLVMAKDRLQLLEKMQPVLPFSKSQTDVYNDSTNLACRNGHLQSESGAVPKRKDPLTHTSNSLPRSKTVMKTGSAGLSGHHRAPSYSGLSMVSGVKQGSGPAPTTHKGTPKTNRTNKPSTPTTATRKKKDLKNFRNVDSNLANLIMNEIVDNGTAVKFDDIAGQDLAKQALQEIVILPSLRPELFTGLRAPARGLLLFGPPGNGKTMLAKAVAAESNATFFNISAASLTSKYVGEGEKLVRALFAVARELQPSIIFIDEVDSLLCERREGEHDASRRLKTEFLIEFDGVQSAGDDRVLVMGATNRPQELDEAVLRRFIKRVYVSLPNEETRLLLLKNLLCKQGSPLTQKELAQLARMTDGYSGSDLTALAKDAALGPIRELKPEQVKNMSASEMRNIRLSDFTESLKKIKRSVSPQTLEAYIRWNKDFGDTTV
Test Summary: competitive isoTOP-ABPP
Format: binding
Test Settings: 50 uM, in vitro, sol, 231
Quantity Name: isoTOP-ABPP ratio (R) at liganded lysine Q9UBP0_K180

INSERT INTO results (molecule, target, measured) VALUES
  ('CC(=O)Oc1ccc([N+](=O)[O-])cc1[N+](=O)[O-] [fragment 43, 2,4-Dinitrophenyl acetate]', 'SPAST Spastin (Homo sapiens)', 2.7),
  ('O=C(Oc1ccc([N+](=O)[O-])cc1[N+](=O)[O-])C(c1ccccc1)(c1ccccc1)c1ccccc1 [fragment 42, 2,4-Dinitrophenyl 2,2,2-triphenylacetate]', 'SPAST Spastin (Homo sapiens)', 1.0),
  ('O=C(CC12CC3CC(CC(C3)C1)C2)Oc1ccc([N+](=O)[O-])cc1[N+](=O)[O-] [fragment 38]', 'SPAST Spastin (Homo sapiens)', 2.1),
  ('O=C(Oc1ccc([N+](=O)[O-])cc1[N+](=O)[O-])c1ccc(-c2ccccc2)cc1 [fragment 37]', 'SPAST Spastin (Homo sapiens)', 1.1),
  ('CC(C)(C)OC(=O)NCCCC(=O)Oc1ccc([N+](=O)[O-])cc1[N+](=O)[O-] [fragment 41]', 'SPAST Spastin (Homo sapiens)', 1.4),
  ('O=C(Oc1ccc([N+](=O)[O-])cc1[N+](=O)[O-])c1ccc(Oc2ccccc2)cc1 [fragment 39, 2,4-Dinitrophenyl 4-phenoxybenzoate]', 'SPAST Spastin (Homo sapiens)', 1.4);
